System: SW-620
Protocol notes: In vitro cytotoxic activity against colon (SW 620) cancer cell line.
Format: functional
Measurement parameters: Homo sapiens
Readout type: GI50 (µM)
Response body: numeric value in µM, unit text excluded.

COc1cc([C@@H]2c3cc4c(cc3[C@@H](O)[C@H]3COC(CC(C)=O)[C@@H]23)OCO4)cc(OC)c1O (stereo not given in full) | 0.1
COc1cc([C@@H]2c3cc4c(cc3[C@@H](O[C@@H]3O[C@@H]5CO[C@@H](C)O[C@H]5[C@H](O)[C@H]3O)[C@H]3COC(=O)[C@H]23)OCO4)cc(OC)c1O [ETOPOSIDE] | 90
COc1cc([C@@H]2c3cc4c(cc3[C@H](O)[C@H]3COC(CC(C)=O)[C@H]23)OCO4)cc(OC)c1OC (stereo not given in full) | 60
COc1cc([C@@H]2c3cc4c(cc3[C@H](O)[C@H]3COC(=O)[C@H]23)OCO4)cc(OC)c1OC | 2
COC(=O)CC1OC[C@H]2[C@H]1[C@H](c1cc(OC)c(O)c(OC)c1)c1cc3c(cc1[C@H]2O)OCO3 (stereo not given in full) | 20
COC(=O)CC1OC[C@H]2[C@H]1[C@H](c1cc(OC)c(OC)c(OC)c1)c1cc3c(cc1[C@@H]2O)OCO3 (stereo not given in full) | 70

// COCCOC1OC[C@H]2[C@H]1[C@H](c1cc(OC)c(OC)c(OC)c1)c1cc3c(cc1[C@@H]2O)OCO3 (stereo not given in full) : GI50 value = 80

// COc1cc([C@@H]2c3cc4c(cc3[C@H](O)[C@H]3COC(OCCF)[C@H]23)OCO4)cc(OC)c1OC (stereo not given in full) : GI50 value = 70

// COc1cc([C@@H]2c3cc4c(cc3[C@H](O)[C@H]3COC(OCCO)[C@H]23)OCO4)cc(OC)c1OC (stereo not given in full) : GI50 value = 70
